Tested on: Pyricularia oryzae
ASSAY METHOD TEXT: Antimicrobial activity against Pyricularia oryzae at 50 ug/ml after 5 days by poisoned food technique
Assay type: functional
MEASUREMENT CONDITIONS: 120 h
Label Y for high-side inhibition at 50 µg/mL (at or above 10%) and N for low-side inhibition at 50 µg/mL (below it).

COMPOUND | ASSIGNED CLASS
Cc1cccc2c1cc1n2-c2ccccc2NC1c1ccc(O)cc1 (stereo unspecified) | Y
Cc1c2n(c3ccccc13)-c1ccccc1NC2c1ccc([N+](=O)[O-])cc1 (stereo unspecified) | Y
Cc1cc(O)no1 | Y
Cc1cccc2c1cc1n2-c2ccccc2NC1(C)c1ccccc1 (stereo unspecified) | Y
Cc1ccc2cc3n(c2c1)-c1ccccc1NC3c1ccc([N+](=O)[O-])cc1 (stereo unspecified) | N
Cc1cccc2c1cc1n2-c2ccccc2NC1c1ccc(N(C)C)cc1 (stereo unspecified) | N
Cc1cccc2c1cc1n2-c2ccccc2NC1c1ccccc1O (stereo unspecified) | N
COc1ccc(C2Nc3ccccc3-n3c2cc2c(C)cccc23)cc1 (stereo unspecified) | Y
Cc1cccc2c1cc1n2-c2ccccc2NC1c1ccccc1 (stereo unspecified) | Y
O=[N+]([O-])c1ccc(C2Nc3ccccc3-n3c2cc2ccccc23)cc1 (stereo unspecified) | N

* * *

Test system: Pyricularia oryzae
ASSAY METHOD TEXT: Antimicrobial activity against Pyricularia oryzae at 50 ug/ml after 5 days by poisoned food technique
Assay type: functional
MEASUREMENT CONDITIONS: 120 h
Below, each entry is listed with its recorded inhibition at 50 µg/mL.

COMPOUND | inhibition at 50 µg/mL, %
COc1cc(C2Nc3ccccc3-n3c2cc2ccccc23)ccc1O (configuration not stated) | 4.4
Cc1c2n(c3ccccc13)-c1ccccc1NC2c1ccco1 (configuration not stated) | 33.4
Oc1ccc(C2Nc3ccccc3-n3c2cc2ccccc23)cc1 (configuration not stated) | 50.8
N#Cc1ccc2c(c1)cc1n2-c2ccccc2NC1c1ccc([N+](=O)[O-])cc1 (configuration not stated) | 62.8
COc1cc(C2Nc3ccccc3-n3c2cc2c(C)cccc23)ccc1O (configuration not stated) | 16
Cc1ccc2cc3n(c2c1)-c1ccccc1NC3c1ccc(O)cc1 (configuration not stated) | 43.7
Cc1c2n(c3ccccc13)-c1ccccc1NC2c1ccc(O)cc1 (configuration not stated) | 46.5

Where these numbers come from: ChEMBL document CHEMBL1770128
